Study target: human Plasma Kallikrein (KLKB1) (Homo sapiens (Human), UniProt P03952)
Sequence (P03952 391-638): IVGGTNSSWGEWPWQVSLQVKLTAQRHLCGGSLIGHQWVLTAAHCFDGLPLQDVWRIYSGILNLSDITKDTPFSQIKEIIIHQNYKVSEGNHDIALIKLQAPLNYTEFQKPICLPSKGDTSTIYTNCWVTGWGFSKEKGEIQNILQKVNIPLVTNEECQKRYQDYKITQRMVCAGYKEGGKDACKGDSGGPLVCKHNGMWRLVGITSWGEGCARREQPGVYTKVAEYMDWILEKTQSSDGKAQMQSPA
Sequence (P03952 20-390 partner): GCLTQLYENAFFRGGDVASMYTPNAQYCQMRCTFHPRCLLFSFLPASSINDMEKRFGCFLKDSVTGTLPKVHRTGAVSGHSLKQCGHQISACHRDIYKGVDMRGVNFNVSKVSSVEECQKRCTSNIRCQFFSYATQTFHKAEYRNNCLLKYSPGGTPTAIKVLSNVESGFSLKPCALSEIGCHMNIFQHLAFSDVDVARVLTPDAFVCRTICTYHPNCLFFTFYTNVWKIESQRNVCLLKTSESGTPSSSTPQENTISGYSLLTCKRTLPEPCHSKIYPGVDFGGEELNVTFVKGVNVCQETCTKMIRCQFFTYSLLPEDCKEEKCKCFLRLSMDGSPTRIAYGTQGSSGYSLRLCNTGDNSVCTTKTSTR
Procedure text: Inhibition of KLKB1 endpoint assay
Run conditions: fluorogenic substrate H-Pro-Phe-Arg-AMC, 1 hr at Room Temperature, read-out: IC50 measurements for the inhibition of human Plasma Kallikrein (KLKB1)
pIC50: −log10 of the molar value.
Observation type: pIC50

A. Nc1nccc2c1CCC2NC(=O)c1cn(Cc2ccc(CN3C[C@@H]4C[C@@H]4C3=O)cc2)nc1C(F)(F)F (single isomer, unassigned) [Example 51]
B. Nc1ccc2c(n1)CCC2NC(=O)c1cn(Cc2ccc(N3CC4CC4C3=O)cc2)nn1 (stereo not shown)
C. Cc1cc(N2CC3CC3C2)ncc1Cn1cc(C(=O)N[C@@H]2CCc3c2ccnc3N)nn1 (stereo partly shown)
Input line: // smallest pIC50 at index 0, largest at the end Thanks in advance for listing the labels in the requested order.
Output line: B, A, C

I. Nc1ccc2c(n1)CC[C@H]2NC(=O)c1cn(Cc2cnc(N3CC4CC4C3)nc2)nn1 (stereo partly shown)
II. Cc1cc(N)nc2c1C(NC(=O)c1cn(Cc3ccc(N4CC5COCCN5C4=O)cc3)nn1)CC2 (stereo not shown)
III. Cc1cc(Cn2cc(C(=O)N[C@@H]3CCc4nc(N)ccc43)cn2)ccc1CN1CC2CC2C1=O (single isomer, unassigned) [Example 68]
Input line: Please list these in order of increasing pIC50. Thank you! Please, when replying, give the labels in the order that was requested.
Output line: II, I, III

# credit: patent US10640486B2
